target: Soluble guanylate cyclase (Homo sapiens) (UniProt Q02153+O75343+P33402+Q02108); experiment: Effect on cGMP production in porcine iris-ciliary body at 100 uM; format: functional; details: Sus scrofa, target entry is the homologue from another species
measurement-type: Activity (pmol/mg)
State the answer as a number, implicitly in pmol/mg.

Sample answers from the record:
CC(C)(C)C(=O)O/N=C(/c1c[nH]cn1)[N+](=O)[O-] | 0.73
CCCC(=O)O/N=C(/c1c[nH]cn1)[N+](=O)[O-] | 0.38
CCCC(=O)ONC(=N)c1cncn1C | 0.24
CC(=O)O/N=C(/c1c[nH]cn1)[N+](=O)[O-] | 0.78

Kindly consider the entry below.
Return Activity measured with Soluble guanylate cyclase (Homo sapiens) (UniProt Q02153+O75343+P33402+Q02108) given this compound: Cn1cncc1C(=N)NOC(=O)C(C)(C)C
0.24
